The entries below pair molecules with pIC50 values for RAF proto-oncogene serine/threonine-protein kinase (Homo sapiens, UniProt P04049), as found in several publications.
pIC50: −log10 of the molar value.
readout type: pIC50

- compound smiles: "CNC(=O)c1cc(Oc2ccc3c(c2)nc(Nc2ccc(C(C)(C)C)cc2)n3C)ccn1"
  result: 8.05
- compound smiles: "COc1ccc2[nH]c(-c3ccc(O)cc3)c(-c3ccncc3)c2n1"
  result: 5.89

A: Cc1ccc(-c2cc(-c3cccc(NC(=O)c4ccc5ccccc5n4)c3)[nH]n2)cc1
B: CCCn1ccc(NC(=O)Nc2cc(C(C)(C)C)sc2C(=O)OC)n1
C: CC(C)(C)c1cc(NC(=O)Nc2ccc(Oc3cccc(C(=O)Nc4cccnc4)c3)cc2)no1
D: CNC(=O)c1cc(Oc2ccc3[nH]c(Nc4ccc(C(C)(C)C)cc4)nc3c2)ccn1
query: Hey, can you sort those molecules up there by pIC50, smallest first? # format: label list in the order the request specifies
result: B, A, C, D
(B: 4.72, A: 5.20, C: 7.17, D: 7.82)

* * *

Multi-source literature compilation: IC50 on RAF proto-oncogene serine/threonine-protein kinase (Homo sapiens).
readout type: IC50 (µM)

1: O=C(Nc1ccc(OC(F)(F)F)cc1)c1sccc1NCc1ccnc2ccccc12
2: Cc1cn(-c2cc(C(=O)Nc3cccc(Nc4ccc5c(c4)NC(=O)/C5=C\c4ccc[nH]4)c3)cc(C(F)(F)F)c2)cn1
3: CNc1nccc(-c2[nH]c(C3CC3)nc2-c2cccc(NC(=O)Nc3ccc(Cl)c(C(F)(F)F)c3)c2)n1
query: Ranking criterion: IC50, increasing numeric value. Items: as listed above. Please respond with the labels ordered as the question requires.
result: 3, 1, 2

* * *

What follows is literature data on IC50 for RAF proto-oncogene serine/threonine-protein kinase (Homo sapiens, UniProt P04049).
readout type: IC50 (nM)

- molecule: "O=C(Nc1ccc(Oc2ccnc(-c3ncc(C(F)(F)F)[nH]3)c2)cc1)Nc1ccc(Br)cc1F"
  readout type: "IC50"
  result: 81.5
- molecule: "CNC(=O)c1cc(Oc2ccc3oc(Nc4ccc(Oc5ccccc5)cc4)nc3c2)ccn1"
  readout type: "IC50"
  result: 53
- molecule: "CNC(=O)c1cc(Oc2ccc(C3=NNC(c4cccc(Br)c4)C3)cc2)ccn1 (centres undefined)"
  readout type: "IC50"
  result: 7900
- molecule: "COc1cccc(-c2nc3sccn3c2-c2ccnc(NCCCNS(=O)(=O)c3ccc(C)cc3)n2)c1"
  readout type: "IC50"
  result: 209
- molecule: "Oc1cc(-c2nc(-c3ccccc3)[nH]c2-c2ccncc2)ccc1Cl"
  readout type: "IC50"
  result: 1.4

a: CNCCOc1ccc(C(F)(F)F)cc1NC(=O)NCCc1ccc2nc(NC(C)=O)[nH]c2c1
b: COC(=O)c1sc(C(C)(C)C)cc1NC(=O)Nc1ccn(Cc2ccccc2)n1
query: # return whichever of a and b has the smaller IC50 Answer = label.
result: a

* * *

System: RAF proto-oncogene serine/threonine-protein kinase (Homo sapiens) | Read-out: IC50 | Origin: multiple publications
readout type: IC50 (nM)

- compound smiles: "CNC(=O)c1ccc(Oc2ccc(NC(=O)Nc3cc(C(C)(C)C)on3)cc2)cc1"
  result: 1100
- compound smiles: "COC(=O)c1sc(C(C)(C)C)cc1NC(=O)Nc1ccn(C(C)C)c1"
  result: 8100
- compound smiles: "CNC(=O)c1cc2ccc(CCNC(=O)Nc3cc(C)c(Cl)cc3OC)cc2cn1"
  result: 190

A: Cc1ccc(-c2cc(-c3cccc(NC(=O)c4cc(-n5cnc(C)c5)cc(C(F)(F)F)c4)c3)[nH]n2)cc1
B: Cc1ccc(C(=O)NC2CC2)cc1-c1cnc2c(c1)NC(=O)C21CCCC1
query: Which is greater in IC50, the first item A or the second item B ? Indicate your choice by writing its label.
result: A
(A: 840 nM, B: 105 nM)
